# credit: the supplement of paper PMC11624193

Molecular target: PARP1 L713F-nLuc biosensor (HCT116)
Test: PARP1 L713F-nLuc/akaLuc ratio relative to DMSO control (biosensor stabilization) (fold change); higher = more PARP1 biosensor stabilization (target engagement / stabilizer), active = hit call of the paper
Details: stock concentration (mM; final µM = stock mM x 1): 2; 24 h
Counter-ions that a name gives are not always drawn.
reported_metric: PARP1 L713F-nLuc/akaLuc ratio
Answers are plain numbers.

[[record]]
compound = "CCc1cc(O)c(F)cc1-c1ccc2c(-c3nc4c([nH]3)CN(C3CCN(C)CC3)CC4)n[nH]c2c1 [JAK-IN-5 (hydrochloride)]"
experimental_result = 0.581

[[record]]
compound = "COc1cc2c(N3CCN(C(=O)Nc4ccc(OC(C)C)cc4)CC3)ncnc2cc1OCCCN1CCCCC1 [Tandutinib (MLN518)]"
experimental_result = 1.73

[[record]]
compound = "Cc1nn(C)c(COc2ccc(N3CCN(S(=O)(=O)N(C)C)CC3)cc2)c1-c1cccc2c(CCCOc3cccc4ccccc34)c(C(=O)O)n(CCN3CCOCC3)c12"
experimental_result = 1.04


List the reported PARP1 L713F-nLuc/akaLuc ratio of each compound below.
1. Cn1cc(C[C@@H](N)C(=O)O)c2ccccc21 [Indoximod (NLG-8189?]
2. COc1cc2/c(=N/c3ccc(Br)cc3F)nc[nH]c2cc1OCC1CCN(C)CC1 [Vandetanib (ZD6474)]
3. CCc1c(N(CC)C2CCOCC2)cc2oc(C3CCN(C(C)C)CC3)cc2c1C(=O)NCc1c(C)cc(C)[nH]c1=O
4. CCC(C)n1ncn(-c2ccc(N3CCN(c4ccc(OCC5COC(Cn6cncn6)(c6ccc(Cl)cc6Cl)O5)cc4)CC3)cc2)c1=O (configuration not stated) [Itraconazole]

Response:
1. 0.857
2. 0.748
3. 0.847
4. 0.872
